# assay_protocol: Thermodynamic solubility of compound at physiological pH
# Format: physicochemical
# measurement_conditions: read-out: Therm_solubility
experimental_endpoint: solubility thermodynamic (µg/mL)

INSERT INTO measurements (compound_structure, experimental_endpoint, limit_sign, reported_value) VALUES
  ('Cc1c(-c2ccc3[nH]cnc3c2)ccc2c3ocnc3c(=O)n(C3CC3)c12', 'solubility thermodynamic', '<', 9),
  ('Cc1c(-c2cc(F)c(CO)cc2F)ccc2c3ocnc3c(=O)n(C3CC3)c12', 'solubility thermodynamic', '=', 1.9),
  ('Cc1c(-c2cnc(N)cn2)ccc2c3ocnc3c(=O)n(C3CC3)c12', 'solubility thermodynamic', '=', 6.8),
  ('Cc1c(-c2ccc3nonc3c2)ccc2c3ocnc3c(=O)n(C3CC3)c12', 'solubility thermodynamic', '<', 9),
  ('Cc1c(-c2cc(F)c(N)cc2F)ccc2c3oc(CN)nc3c(=O)n(C3CC3)c12', 'solubility thermodynamic', '=', 36),
  ('Cc1c(-c2ccc3[nH]ncc3c2)ccc2c3ocnc3c(=O)n(C3CC3)c12', 'solubility thermodynamic', '=', 1.1),
  ('Cc1c(-c2ccc3[nH]c(N)nc3c2)ccc2c3ocnc3c(=O)n(C3CC3)c12', 'solubility thermodynamic', '=', 16),
  ('Cc1c(-c2ccc3c(c2)CNC3)ccc2c3ocnc3c(=O)n(C3CC3)c12', 'solubility thermodynamic', '=', 209),
  ('Cc1c(-c2ccc(N)cc2F)ccc2c3ocnc3c(=O)n(C3CC3)c12', 'solubility thermodynamic', '=', 1.1),
  ('Cc1c(-c2cnc(N)nc2)ccc2c3ocnc3c(=O)n(C3CC3)c12', 'solubility thermodynamic', '=', 15),
  ('Cc1c(-c2cnc3[nH]ncc3c2)ccc2c3oc(CN)nc3c(=O)n(C3CC3)c12', 'solubility thermodynamic', '=', 618),
  ('Cc1c(-c2ccc3[nH]ncc3c2)ccc2c3oc(CN)nc3c(=O)n(C3CC3)c12', 'solubility thermodynamic', '=', 10);
